# Test system: UACC-257 melanoma
# measurementProtocol: NCI tumour cell line growth inhibition, 48 h
resultType: TGI

Some solved entries appear below for comparison.
O=C(O)CCCCCOc1cccnc1/C=N/NC1=NCCN1: > 100 µM
CCC(=O)C(C)C1=Nc2nnc(CCCCCCCc3nnc4n3C(=O)C(C(C)C(=O)CC)=N4)n2C1=O (stereo not drawn): > 100 µM

Lab book: TGI of `Cc1ccc(S(=O)(=O)NC(=O)NC23CC4CC(CC(F)(C4)C2)C3)cc1` noted as > 100 µM

Value of measured TGI for the entry `Cc1c(C(=O)c2ccccc2C(=O)O)c2ccccc2n1C` : > 100 µM

# TGI (molecule: `Cc1cc(CNC(=O)OCc2ccccc2)c(C)c2c1Oc1ccccc1O2` ) is > 100 µM

Reference for the values: PubChem BioAssay (NCI)
